These data points were gathered from PubChem BioAssay AID296.

Tested on: MX-1 breast xenograft, nude mice, tumor weight T/C
assay text: NCI In Vivo Anticancer Drug Screen. Data for tumor model Human Mammary Carcinoma MX-1 Xenograft (intrarenal inoculation) in NU/NU Swiss (nude) mice
test parameters: endpoint: mean tumor weight change; dose: 300.0 mg/kg/injection; schedule: Q04DX003 (sc); vehicle: distilled water + Tween-80; higher = larger tumour
Results filed as inconclusive are left out. Where a SMILES comes first, the peptide text is derived from it. The star is where a group is joined. Trt = c1ccc(C(c2ccccc2)(c2ccccc2)*)cc1; Cbz = O=C(OCc1ccccc1)*
measurement type: T/C

compound	measured result
COC(=O)C(CSC(c1ccccc1)(c1ccccc1)c1ccccc1)NC(=O)C(CC(N)=O)NC(=O)OCc1ccccc1 (stereo not drawn) (Cbz-Asn-Cys(Trt)-OMe; configuration not given here)	97 % of control
O=C(O)CCCCCCCC(=O)O	151 % of control
COc1ccc2c(c1)CCn1c(C)c(COC(=O)NC(C)C)c(COC(=O)NC(C)C)c1-2	3 % of control
CNC(=O)OCc1c(COC(=O)NC)c(-c2ccc(Cl)c(Cl)c2)n2c1Cc1ccccc1C2	64 % of control
